MEASURED TARGET: rA1 adenosine receptor (Rattus norvegicus)
Sequence (P25099 whole entry): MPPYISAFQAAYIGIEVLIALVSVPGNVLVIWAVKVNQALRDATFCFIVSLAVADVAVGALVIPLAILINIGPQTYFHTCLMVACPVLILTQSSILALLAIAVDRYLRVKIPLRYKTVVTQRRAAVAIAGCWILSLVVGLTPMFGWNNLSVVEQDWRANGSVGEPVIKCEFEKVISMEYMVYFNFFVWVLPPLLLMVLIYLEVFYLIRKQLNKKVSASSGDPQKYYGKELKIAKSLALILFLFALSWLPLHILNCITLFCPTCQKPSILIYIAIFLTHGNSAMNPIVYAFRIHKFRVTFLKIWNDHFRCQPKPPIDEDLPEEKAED
pKi: −log10 of the molar value.
REPORTED PROPERTY: pKi

CCn1c(=O)[nH]c2nc(-c3ccc(S(=O)(=O)N4CCN(Cc5ccc6c(c5)OCO6)CC4)cc3)[nH]c2c1=O 7.27
CCCn1c(=O)[nH]c2nc(-c3ccc(S(=O)(=O)N4CCN(Cc5ccc(OC)cc5)CC4)cc3)[nH]c2c1=O 7.08
CCCn1c(=O)[nH]c2nc(-c3ccc(S(=O)(=O)N4CCN(Cc5cccc(Cl)c5)CC4)cc3)[nH]c2c1=O 6.75

A: CCCn1c(=O)[nH]c2nc(-c3ccc(S(=O)(=O)N4CCN(Cc5cccc(F)c5)CC4)cc3)[nH]c2c1=O
B: CCCn1c(=O)[nH]c2nc(-c3ccc(S(=O)(=O)N4CCN(Cc5ccc(Cl)cc5)CC4)cc3)[nH]c2c1=O
Endpoint returns whichever of A and B has the numerically higher pKi. Reply with the label of the item you choose.
A
(A: 6.95, B: 6.41)

----------
MEASUREMENT PROTOCOL: Pharmacokinetics of Compound 1 in mice, oral or intravenous
Type: in vivo
EXPERIMENTAL PARAMETERS: whole blood, iv; C57BLK6 mice, i.v. application in mouse serum; read-out: terminal half life
REPORTED PROPERTY: half-life

Query (molecule): CCCn1c(=O)[nH]c2nc(-c3ccc(S(=O)(=O)N4CCN(c5ccc(Cl)cc5)CC4)cc3)[nH]c2c1=O [Compound 1] ; field requested: half-life
1 to 2 h

----------
Heads up, these compounds all have Ki values measured for hA3 adenosine receptor (Homo sapiens).

COMPOUND	REPORTED
CCn1c(=O)[nH]c2nc(-c3ccc(S(=O)(=O)N4CCN(Cc5ccc6c(c5)OCO6)CC4)cc3)[nH]c2c1=O [Ethyl-/3,4-(Methylen-dioxy)benzyl-]	< 10 µM
CCCn1c(=O)[nH]c2nc(-c3ccc(S(=O)(=O)N4CCN(c5ccc(Cl)cc5)CC4)cc3)[nH]c2c1=O [Compound 1]	> 10 µM

Attention now turns to another entry.
Query (compound): CCCn1c(=O)[nH]c2nc(-c3ccc(S(=O)(=O)N4CCN(Cc5ccccc5)CC4)cc3)[nH]c2c1=O [Propyl-/Benzyl-] ; field requested: Ki
> 10 µM

----------
MEASURED TARGET: hA2B adenosine receptor (Homo sapiens)
Sequence (P29275 whole entry): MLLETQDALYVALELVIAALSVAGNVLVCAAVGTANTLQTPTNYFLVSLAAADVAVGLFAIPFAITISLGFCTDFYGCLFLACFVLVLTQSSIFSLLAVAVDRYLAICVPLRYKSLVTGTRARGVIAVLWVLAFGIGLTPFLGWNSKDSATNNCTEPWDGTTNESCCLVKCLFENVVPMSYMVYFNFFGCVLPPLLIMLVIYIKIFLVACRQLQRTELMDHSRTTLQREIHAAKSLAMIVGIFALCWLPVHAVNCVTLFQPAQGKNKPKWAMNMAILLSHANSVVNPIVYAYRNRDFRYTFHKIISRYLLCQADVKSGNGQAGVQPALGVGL
REPORTED PROPERTY: IC50 (nM)

Example entries begin here.
CCCn1c(=O)[nH]c2nc(-c3ccc(S(=O)(=O)N4CCN(c5ccc(Cl)cc5)CC4)cc3)[nH]c2c1=O 1
CCCn1c(=O)[nH]c2nc(-c3ccc(S(=O)(=O)N4CCN(CCc5ccccc5)CC4)cc3)[nH]c2c1=O 11
CCn1c(=O)[nH]c2nc(-c3ccc(S(=O)(=O)N4CCN(c5ccccc5)CC4)cc3)[nH]c2c1=O 4

a: CCn1c(=O)[nH]c2nc(-c3ccc(S(=O)(=O)N4CCN(Cc5ccc6c(c5)OCO6)CC4)cc3)[nH]c2c1=O
b: CCCn1c(=O)[nH]c2nc(-c3ccc(S(=O)(=O)N4CCN(Cc5ccccc5)CC4)cc3)[nH]c2c1=O
c: CCCn1c(=O)[nH]c2nc(-c3ccc(S(=O)(=O)N4CCN(Cc5cccc(F)c5)CC4)cc3)[nH]c2c1=O
In this exercise, place the 3 compounds in ascending sequence of their recorded IC50. Answer by naming the labels in the order asked.
c, a, b
